assay: Prodrug assay: plasma concentrations of prodrugs and demethylated parents after cassette dosing, LC-MS; format: in vivo, C57 Bl/6 mice; settings: C57 Bl/6, mouse, oral, p.o. cassette of prodrugs, nominal 5 mg/kg, solution, 2 h, read-out: Parent (demethylated compound) Conc. in plasma after prodrug dosing
quantity: concentration at 2 h (µM)

mol_smiles	unit_info	concentration at 2 h
O=S(=O)(Nc1cnc(Cl)cc1O)c1cc(Cl)sc1Cl	µM	0.69

P = O=S(=O)(Cc1ccc(Cl)c(Cl)c1)Nc1ncc(Br)nc1O
Q = O=S(=O)(Cc1cc(Cl)cc(Cl)c1)Nc1ncc(Cl)cc1O
Challenge: Lowest concentration at 2 h? choose P or Q Bench note: the answer is the label of the chosen record.
Response given: Q

FYI, the data here is from patent US10125125B2.
